measurement.type: melting point

Sample answers from the record:
- molecule: "Cc1c(NC(=O)C(C)Sc2nnc(N)s2)c(=O)n(-c2ccccc2)n1C (stereo not given)"
  melting point: "143 to 147 °C"
- molecule: "O=C(O)c1ccc(S(=O)(=O)Nc2nccs2)cc1"
  melting point: "289 to 291 °C"
- molecule: "Cc1nn(-c2ccccc2)c(Cl)c1CO"
  melting point: "89 to 91 °C"
- molecule: "Cc1cc(C(=O)O)nc(-c2ccc(Cl)cc2)n1"
  melting point: "163 to 165 °C"
- molecule: "Cc1nn(-c2cccc(C(F)(F)F)c2)c2sc(C(=O)O)cc12"
  melting point: "271 to 273 °C"
- molecule: "Nc1ccc(Oc2ccc(Br)cc2)cc1"
  melting point: "58 to 60 °C"

Query molecule follows.
input: Can you look up the measured melting point of Nc1nnc(-c2cccc(OC(F)F)c2)o1 for me?
output: 179 to 181 °C
